- measured-on: various mutants of kinase EGFR (BaF3 cell lines stably transfected with kinase) (Homo sapiens, UniProt P00533, C797S/L858R/T790M)
- Construct: expressed in transfected cells; host or cells: BaF3
- Sequence (P00533 25-1210 T790M/C797S/L858R): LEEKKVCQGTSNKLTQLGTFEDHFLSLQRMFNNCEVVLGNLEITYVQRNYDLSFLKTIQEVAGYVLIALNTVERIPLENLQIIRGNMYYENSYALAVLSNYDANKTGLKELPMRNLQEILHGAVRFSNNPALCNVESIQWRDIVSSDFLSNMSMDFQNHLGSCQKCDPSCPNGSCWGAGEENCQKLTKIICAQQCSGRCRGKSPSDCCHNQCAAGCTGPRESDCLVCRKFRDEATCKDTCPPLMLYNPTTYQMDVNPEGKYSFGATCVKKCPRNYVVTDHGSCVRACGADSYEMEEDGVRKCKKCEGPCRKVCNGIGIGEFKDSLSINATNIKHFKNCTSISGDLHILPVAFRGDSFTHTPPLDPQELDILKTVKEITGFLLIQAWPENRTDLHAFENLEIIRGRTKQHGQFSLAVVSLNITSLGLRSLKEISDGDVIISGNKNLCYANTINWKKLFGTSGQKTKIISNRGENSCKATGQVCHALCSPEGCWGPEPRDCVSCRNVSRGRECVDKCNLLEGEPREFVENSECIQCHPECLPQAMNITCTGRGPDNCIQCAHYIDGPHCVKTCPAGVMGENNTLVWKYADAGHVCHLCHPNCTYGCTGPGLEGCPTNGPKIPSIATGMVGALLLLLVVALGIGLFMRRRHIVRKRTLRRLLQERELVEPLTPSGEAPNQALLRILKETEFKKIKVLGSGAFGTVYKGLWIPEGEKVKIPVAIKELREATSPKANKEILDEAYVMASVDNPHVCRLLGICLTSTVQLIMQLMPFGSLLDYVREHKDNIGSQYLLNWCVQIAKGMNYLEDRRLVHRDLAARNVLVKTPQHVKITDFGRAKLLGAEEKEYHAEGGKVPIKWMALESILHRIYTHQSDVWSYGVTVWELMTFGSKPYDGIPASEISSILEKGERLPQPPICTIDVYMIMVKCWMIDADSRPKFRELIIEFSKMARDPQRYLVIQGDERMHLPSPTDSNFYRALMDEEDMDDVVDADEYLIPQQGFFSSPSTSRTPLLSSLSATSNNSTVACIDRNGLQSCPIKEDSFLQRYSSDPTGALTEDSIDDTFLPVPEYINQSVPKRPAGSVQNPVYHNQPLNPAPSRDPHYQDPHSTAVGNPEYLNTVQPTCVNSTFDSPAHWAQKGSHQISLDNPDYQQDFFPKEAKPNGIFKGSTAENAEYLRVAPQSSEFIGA
- assay-details: Growth inhibitory activity of compounds on BaF3 cell lines stably transfected with kinase (MTS, 48 h)
- Assay type: cell-based
- experimental-context: BaF3 cell line stably transfected with EGFR L858R/T790M/C797S, read-out: L858R/T790M/ C797S growth inhibitory activity IC50
endpoint: IC50

Example cases with answers are listed next.
[ask] Query IC50 for CCN(c1c(Nc2nc(Nc3cc(N4CCC(O)CC4)ccc3OC)ncc2Cl)ccc2nccnc12)S(C)(=O)=O [Compound I-377]
[reply] ≤ 0.05 µM

[ask] Query IC50 for CCc1cc(Nc2ncc(CC)c(Nc3ccc4nccnc4c3N(C)S(C)(=O)=O)n2)c(OC)cc1N1CCC(N(C)C)CC1 [Compound I-323]
[reply] ≤ 0.05 µM

[ask] Query IC50 for COc1ccc(N2CCC(O)CC2)cc1Nc1ncc(C(F)(F)F)c(Nc2ccc3nccnc3c2N(C)S(C)(=O)=O)n1 [Compound I-369]
[reply] ≤ 0.05 µM

[ask] Query IC50 for CCc1cc(Nc2nc(Nc3ccc4nccnc4c3N(C)S(C)(=O)=O)c3occc3n2)c(OC)cc1N1CCC(N2CCN(C)CC2)CC1 [II-1-26]
[reply] ≤ 0.05 µM

[ask] Query IC50 for CCc1cc(Nc2nc(Nc3ccc4nccnc4c3N(C)S(C)(=O)=O)c3[nH]ccc3n2)c(OC)cc1N1CCC(N2CCN(C)CC2)CC1 [II-1-20]
[reply] 0.5 to 2.5 µM

[ask] Query IC50 for COc1cc(N2CCN(C)CC2)c(C)cc1Nc1nc(Nc2ccc3nccnc3c2N(C)S(C)(=O)=O)c2sccc2n1 [II-1-12]
[reply] 0.05 to 0.5 µM

Now let's try a different one.
[ask] Query IC50 for CCc1cc(Nc2nc(Nc3ccc4nccnc4c3N(C)S(C)(=O)=O)c3sccc3n2)c(OC)cc1N1CCC(N(C)C)CC1 [II-1-16]
[reply] 0.05 to 0.5 µM

====

- measured-on: various mutants of kinase EGFR (BaF3 cell lines stably transfected with kinase) (Homo sapiens, UniProt P00533, L858R/T790M)
- Construct: expressed in transfected cells; host or cells: BaF3
- Sequence (P00533 25-1210 T790M/L858R): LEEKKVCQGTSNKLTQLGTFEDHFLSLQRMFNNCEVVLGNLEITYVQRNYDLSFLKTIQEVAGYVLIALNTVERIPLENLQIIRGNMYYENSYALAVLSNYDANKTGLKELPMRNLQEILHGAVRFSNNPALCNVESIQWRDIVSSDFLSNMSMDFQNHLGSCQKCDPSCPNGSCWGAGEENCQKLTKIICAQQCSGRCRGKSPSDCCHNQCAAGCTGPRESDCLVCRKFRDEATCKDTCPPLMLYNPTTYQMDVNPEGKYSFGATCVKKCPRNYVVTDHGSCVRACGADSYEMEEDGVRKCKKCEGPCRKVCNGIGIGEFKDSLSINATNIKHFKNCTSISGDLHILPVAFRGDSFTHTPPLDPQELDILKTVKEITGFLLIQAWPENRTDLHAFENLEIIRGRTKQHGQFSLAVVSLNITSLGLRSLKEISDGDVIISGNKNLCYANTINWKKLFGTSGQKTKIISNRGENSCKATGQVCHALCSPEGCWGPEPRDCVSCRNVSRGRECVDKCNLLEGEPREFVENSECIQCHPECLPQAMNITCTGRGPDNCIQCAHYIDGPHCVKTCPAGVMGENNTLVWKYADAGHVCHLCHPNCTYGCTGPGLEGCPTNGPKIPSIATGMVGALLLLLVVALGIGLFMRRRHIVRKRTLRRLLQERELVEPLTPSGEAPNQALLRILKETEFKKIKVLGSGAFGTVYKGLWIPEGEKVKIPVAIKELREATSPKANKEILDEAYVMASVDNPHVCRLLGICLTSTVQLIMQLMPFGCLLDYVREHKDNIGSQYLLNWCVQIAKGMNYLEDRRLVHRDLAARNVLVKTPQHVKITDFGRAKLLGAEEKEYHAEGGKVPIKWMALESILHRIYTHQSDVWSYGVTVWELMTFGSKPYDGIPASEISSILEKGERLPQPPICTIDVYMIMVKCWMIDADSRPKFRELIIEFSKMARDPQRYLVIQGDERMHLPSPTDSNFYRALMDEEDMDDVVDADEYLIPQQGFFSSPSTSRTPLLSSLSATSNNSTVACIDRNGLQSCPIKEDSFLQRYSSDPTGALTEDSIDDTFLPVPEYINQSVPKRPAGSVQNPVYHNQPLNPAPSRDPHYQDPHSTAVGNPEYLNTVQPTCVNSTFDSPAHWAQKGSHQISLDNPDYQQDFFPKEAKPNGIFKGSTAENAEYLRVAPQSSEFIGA
- assay-details: Growth inhibitory activity of compounds on BaF3 cell lines stably transfected with kinase (MTS, 48 h)
- Format: cell-based
- experimental-context: BaF3 cell line stably transfected with EGFR L858R/T790M, read-out: L858R/ T790M growth inhibitory activity IC50
Assignment: determine reported IC50 for the given molecules.

Example cases with answers are listed next.
[ask] Query IC50 for COc1cc(N2CCC(N3CCN(C)CC3)CC2)ccc1Nc1nc(Nc2ccc3nccnc3c2N(C)S(C)(=O)=O)c2cc[nH]c2n1 [II-2-22]
[reply] ≤ 0.05 µM

[ask] Query IC50 for COc1cc(N2CCC(N(C)C)C2)c(C)cc1Nc1ncc(Br)c(Nc2ccc3nccnc3c2N(C2CC2)S(C)(=O)=O)n1 (centres unmarked) [Compound I-312]
[reply] ≤ 0.05 µM

[ask] Query IC50 for CCc1cc(Nc2ncc(Br)c(Nc3ccc4nccnc4c3NS(C)(=O)=O)n2)c(OC)nc1N1CCC(N2CCN(C)CC2)CC1 [Compound I-404]
[reply] ≤ 0.05 µM

[ask] Query IC50 for CCc1cc(Nc2nc(Nc3ccc4nccnc4c3N(C)S(C)(=O)=O)c3sccc3n2)c(OC)cc1N1CCC(N(C)C)CC1 [II-1-16]
[reply] 0.05 to 0.5 µM

[ask] Query IC50 for COc1ccc(N2CCC(O)CC2)cc1Nc1ncc(F)c(Nc2ccc3nccnc3c2N(C)S(C)(=O)=O)n1 [Compound I-367]
[reply] 0.5 to 2.5 µM

// for each molecule in input: emit IC50
1. C=Cc1cc(Nc2nc(Nc3ccc4nccnc4c3N(C)S(C)(=O)=O)c3sccc3n2)c(OC(F)(F)F)cc1N1CCC(N2CCN(C)CC2)CC1 [II-1-9]
2. C=Cc1cc(Nc2ncc(Cl)c(Nc3ccc4nccnc4c3N(C3CC3)S(C)(=O)=O)n2)c(OC(F)(F)F)cc1N1CCC(N2CCN(C)CC2)CC1 [Compound I-304]
3. CCc1cc(Nc2ncc(Br)c(Nc3ccc4nccnc4c3NS(C)(=O)=O)n2)c(OC)cc1N1CCC(N(C)C)CC1 [Compound I-410]
4. COc1cc(N2CCN(C)CC2)c(C)cc1Nc1ncc(Br)c(Nc2ccc3nccnc3c2N(C2CC2)S(C)(=O)=O)n1 [Compound I-309]
5. CN(c1c(Nc2nc(Nc3cccc(N4CCC(N5CCCC5)CC4)c3)ncc2Br)ccc2nccnc12)S(C)(=O)=O [Compound I-381]
6. COc1ccc(N2CCC(O)CC2)cc1Nc1ncc(C(C)C)c(Nc2ccc3nccnc3c2N(C)S(C)(=O)=O)n1 [Compound I-364]
7. CCc1cnc(Nc2cc(CC)c(N3CCC(N4CCN(C)CC4)CC3)nc2OC)nc1Nc1ccc2nccnc2c1N(C)S(C)(=O)=O [Compound I-320]
8. COc1ccc(N2CCC(C#N)CC2)cc1Nc1ncc(Br)c(Nc2ccc3nccnc3c2N(C)S(C)(=O)=O)n1 [Compound I-351]

[reply]
0.05 to 0.5 µM
≤ 0.05 µM
≤ 0.05 µM
≤ 0.05 µM
≤ 0.05 µM
0.05 to 0.5 µM
≤ 0.05 µM
≤ 0.05 µM
